Provide the recorded log10 IC50 for the entries that follow.
# test system: Bcl-2-related protein A1 (Homo sapiens)
# Sequence (Q16548 whole entry, the tested form may be a part): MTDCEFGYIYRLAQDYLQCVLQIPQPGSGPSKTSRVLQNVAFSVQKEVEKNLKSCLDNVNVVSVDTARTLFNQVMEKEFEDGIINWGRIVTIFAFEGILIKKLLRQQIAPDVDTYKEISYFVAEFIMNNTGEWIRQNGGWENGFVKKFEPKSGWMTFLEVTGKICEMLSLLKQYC
# assay explanation: Inhibition of human recombinant N-terminal his tagged Bfl-1 (1 to 151 residues) expressed in Escherichia coli BL21-Gold (DE3) cells using HyLite Fluor 647-labeled BIM peptide as substrate incubated for 120 mins by TR-FRET assay
Scale: log10; quantity: IC50; unit before log: µM

Identify log10 IC50 associated with the compound C=CC(=O)Nc1cc(CN2CCCC2)ccc1-c1ccc(OC)cc1C
1.26

Check the records and state log10 IC50 for C=CC(=O)N(Cc1ccc(OC)cc1)c1cccc(Cl)c1
1.37

Indicate its recorded log10 IC50; the compound in question is C=CC(=O)N1C[C@@H](Oc2cc(Cl)c(F)cc2C#N)[C@H]1CCC (racemic)
1.02

Fill in reported log10 IC50 for this entry: C=CC(=O)N(Cc1ccccc1OCC(N)=O)c1ccc(Cl)cc1
1.23

Output log10 IC50 of C=CC(=O)N1CCC[C@@H]1c1ccccc1
2.68

Report log10 IC50 for C=CC(=O)N(C)[C@@H](c1ccc(Cl)cc1)C1CCOCC1 (racemic)
1.96

Each recorded value in this set is attributed to ChEMBL document CHEMBL5500415.
